- Test system: Fibroblast
- test.details: Incucyte cell viability with human fibroblast; note: unitless GR value; below 1 slowed growth and below 0 cell loss
- Assay type: toxicity, cell-based
- condition.details: 0 h, 10 µM, compound concentration 10 uM, replicate number 2, timepoint 0 hours
# Growth Rate values compiled below
readout.name: Growth Rate

molecule=Cl.O=C(O)c1cc(-c2ccc(C3CCNCC3)cc2)c2ccc(-c3ccc(C(F)(F)F)cc3)cc2c1 result=-0.95
molecule=CCOC(=O)Nc1cc(-c2ccc(C)c(NS(C)(=O)=O)c2)nn2c(C)nnc12 result=0.22
molecule="CN[C@@H](C)C(=O)N[C@H](C(=O)N1CCC[C@H]1C(=O)Nc1snnc1-c1ccccc1)C1CCCCC1 [GDC-0152]" result=0.59
molecule=COc1ccc2nc3ccc(OC)cc3c(SCCCN)c2c1.Cl result=0.39
molecule=O=C1[C@H](Cc2ccc(O)cc2)N2C(=O)CCN(C(=O)NCc3ccccc3)[C@H]2CN1Cc1cccc2ccccc12 result=0.82
molecule=CN(C)C(=O)N1CC[C@H](NC2=Nc3cc(F)ccc3N(CC(F)F)c3ccc(Cl)cc32)C1 result=-0.03
molecule=CO[C@H]1CNC[C@@H](OCC2CCC(F)(F)CC2)[C@@H]1Nc1ncc(-c2cncc(C)c2)c2cc(C)c(=O)[nH]c12 result=0.95
molecule="Cc1ccccc1N1CCN(CCc2nnc3n2CCCC3)CC1.Cl [DAPIPRAZOLE HYDROCHLORIDE]" result=0.16
molecule=CN1CCN(c2ccc(Nc3c4ccccc4nc4ccccc34)cc2)CC1.Cl.Cl.O result=0.35

---

- System: U2OS
- test.details: Incucyte cell viability with U2OS; note: unitless GR value; below 1 slowed growth and below 0 cell loss
- Format: toxicity, cell-based
- condition.details: human, 18 h, 10 µM, compound concentration 10 uM, replicate number 2, timepoint 18 hours
readout.name: Growth Rate

molecule=CC(C)Oc1ccc(F)c(-c2cnc(N)c(C(=O)Nc3cnccc3N3CCC[C@@H](C(=O)O)C3)n2)c1 readout_name="Growth Rate" result=0.84
molecule=CC[C@H](NC(=O)c1c(C)c(-c2ccccc2)nc2ccccc12)c1ccccc1 readout_name="Growth Rate" result=0.84
molecule=COc1ccc(NC(=O)c2ccc(-c3ccc(-c4noc(C)n4)cc3C)cc2)cc1OCCN(C)C.Cl readout_name="Growth Rate" result=0.28
molecule="COc1cc2nc(N(C)CCCNC(=O)C3CCCO3)nc(N)c2cc1OC.Cl (stereo not drawn) [ALFUZOSIN HYDROCHLORIDE]" readout_name="Growth Rate" result=0.93
molecule="CO/C1=C/C(C)=C\\[C@@H](C)[C@@H](O)[C@@H](C)C/C(C)=C\\C=C/[C@H](OC)C([C@@H](C)[C@@H](O)[C@H](C)[C@@]2(O)C[C@@H](O)[C@H](C)[C@@H](C(C)C)O2)OC1=O (stereo partly drawn)" readout_name="Growth Rate" result=0.18
molecule="CN(C)C/C=C/C(=O)Nc1ccc(C(=O)N2CCCC(Nc3ncc(Cl)c(-c4c[nH]c5ccccc45)n3)C2)cc1 (stereo not drawn)" readout_name="Growth Rate" result=0.26
molecule=CN(C(=O)/C=C/c1ccoc1)[C@@H]1CC[C@@]2(O)[C@H]3Cc4ccc(O)c5c4[C@@]2(CCN3CC2CC2)[C@H]1O5 readout_name="Growth Rate" result=0.88
molecule=COc1cc(C(=O)N(CCCc2ccccc2)Cc2ccc(CC(=O)O)cc2)cc(OC)c1C readout_name="Growth Rate" result=0.97

---

- System: U2OS
- test.details: Incucyte cell viability with U2OS; note: unitless GR value; below 1 slowed growth and below 0 cell loss
- Type: toxicity, cell-based
- condition.details: human, 18 h, 10 µM, compound concentration 10 uM, replicate number 2, timepoint 18 hours
readout.name: Growth Rate

molecule=CN(C)c1ccnc2sc3c(=O)n(N4CCCCCC4)cnc3c12 result=0.91
molecule="O=S(=O)(c1ccccc1)c1cnc2c(N3CCNCC3)cccc2c1 [INTEPIRDINE]" result=0.82
molecule=CC(C)Oc1ccc(Cc2ccc(NC3=NCCN3)cc2)cc1 result=0.91
molecule="CN(C(=O)c1ccccc1)c1cc(N(C)c2ccc3c(c2)CCc2ccc(C(=O)NCCN4CCOCC4)cc2C3=O)ccc1F [FM-743]" result=0.66
molecule=Cc1cccc(S(=O)(=O)N(C)[C@H](C)CCN2CCC(C)CC2)c1.Cl result=0.97
molecule="CC[C@H](Nc1ncnc2[nH]cnc12)c1nc2cccc(F)c2c(=O)n1-c1ccccc1 [IDELALISIB]" result=0.68
molecule="CNC(=O)c1nn(C)c2c1C(C)(C)Cc1cnc(Nc3ccc(N4CCN(C)CC4)cc3)nc1-2 [MILCICLIB]" result=0.38
molecule="Cc1nccc(COC(=O)N2C[C@@H]3[C@@H](CNC(=O)c4ccc5[nH]nnc5c4)[C@@H]3C2)n1 [BI 3017]" result=0.98
molecule=C=CCNc1ncnc2ccc(Br)cc12 result=0.85
